Just for reference, BigSolDB 2.1 is where these values come from.

Listing of recorded solubility (mole fraction) by entry.
# Condition Details: in n-butyl acetate, 298.15 K
Write the number on its own, no unit after it.

Some compounds with known solubility (mole fraction) results, for comparison:
* O=c1c(O)c(-c2ccc(O)cc2)oc2cc(O)cc(O)c12 | 0.0024
* O=c1c(O)c(-c2ccc(O)c(O)c2)oc2cc(O)cc(O)c12 | 0.00184
* OC[C@H]1O[C@@H](Oc2cc(O)cc(/C=C/c3ccc(O)cc3)c2)[C@H](O)[C@@H](O)[C@@H]1O | 1.96e-05

Now turn to the next compound.
(Q) For the compound `Oc1ccc(/C=C/c2cc(O)cc(O)c2)cc1` , give its measured solubility (mole fraction) value.
(A) 0.00463

----------
# Condition Details: in ethyl acetate, 298.15 K
Reported Endpoint: solubility (mole fraction)
Write the number on its own, no unit after it.

(Q) For the molecule `O=c1c(O)c(-c2ccc(O)c(O)c2)oc2cc(O)cc(O)c12` , give its measured solubility (mole fraction) value.
(A) 0.00223

(Q) For the molecule `OC[C@H]1O[C@@H](Oc2cc(O)cc(/C=C/c3ccc(O)cc3)c2)[C@H](O)[C@@H](O)[C@@H]1O` , give its measured solubility (mole fraction) value.
(A) 6.73e-05

(Q) For the molecule `Oc1ccc(/C=C/c2cc(O)cc(O)c2)cc1` , give its measured solubility (mole fraction) value.
(A) 0.00895

(Q) For the molecule `O=c1c(O)c(-c2ccc(O)cc2)oc2cc(O)cc(O)c12` , give its measured solubility (mole fraction) value.
(A) 0.00452

----------
Listing of recorded solubility (mole fraction) by entry.
# Condition Details: in methanol, 298.15 K

Some molecules with known solubility (mole fraction) results, for comparison:
• OC[C@H]1O[C@@H](Oc2cc(O)cc(/C=C/c3ccc(O)cc3)c2)[C@H](O)[C@@H](O)[C@@H]1O = 0.0086
• O=c1c(O)c(-c2ccc(O)c(O)c2)oc2cc(O)cc(O)c12 = 0.00144

(Q) For the molecule `Oc1ccc(/C=C/c2cc(O)cc(O)c2)cc1` , give its measured solubility (mole fraction) value.
(A) 0.0189

(Q) For the molecule `O=c1c(O)c(-c2ccc(O)cc2)oc2cc(O)cc(O)c12` , give its measured solubility (mole fraction) value.
(A) 0.00324
